The origin of these recorded values is the supplement of paper PMC10627819.

- System: S. aureus DSM 20231;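 note: first quartile when negative (synergy) and third quartile when positive (antagonism)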
- assay_info: Bliss interaction score (quartile over a dose matrix) (fitness difference); higher = more antagonism (negative = synergy)
Listed here: items and their measured Bliss interaction score.
// response body must contain only the number

Write down the reported Bliss interaction score (system: S. aureus DSM 20231) of CN[C@@H]1[C@H](O[C@H]2[C@H](O[C@H]3[C@H](O)[C@@H](O)[C@H](N=C(N)N)[C@@H](O)[C@@H]3N=C(N)N)O[C@@H](C)[C@]2(O)C=O)O[C@@H](CO)[C@H](O)[C@H]1O [Streptomycin] + CN(C)c1cc(NC(=O)CNC(C)(C)C)c(O)c2c1C[C@H]1C[C@H]3[C@H](N(C)C)C(O)=C(C(N)=O)C(=O)[C@@]3(O)C(O)=C1C2=O [Tigecycline];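 note: first quartile when negative (synergy) and third quartile when positive (antagonism)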
0.064

State recorded Bliss interaction score with S. aureus DSM 20231, entry CC[C@H]1OC(=O)[C@H](C)[C@@H](O[C@H]2C[C@@](C)(OC)[C@@H](O)[C@H](C)O2)[C@H](C)[C@@H](O[C@@H]2O[C@H](C)C[C@H](N(C)C)[C@H]2O)[C@](C)(O)C[C@@H](C)C(=O)[C@H](C)[C@@H](O)[C@]1(C)O [Erythromycin] + CO[C@@]12[C@H](COC(N)=O)C3=C(C(=O)C(C)=C(N)C3=O)N1C[C@@H]1N[C@@H]12 [MitomycinC] , no comment.
-0.048

----------
Form: system (S. aureus Newman), quantity (MIC), values below.
Report only the number, with the unit µg/mL understood.

Completed entries (count: 5):
smi	unit_of_measure	measured_number
CN[C@@H]1[C@H](O[C@H]2[C@H](O[C@H]3[C@H](O)[C@@H](O)[C@H](N=C(N)N)[C@@H](O)[C@@H]3N=C(N)N)O[C@@H](C)[C@]2(O)C=O)O[C@@H](CO)[C@H](O)[C@H]1O	µg/mL	8
CN[C@H](CC(C)C)C(=O)N[C@H]1C(=O)N[C@@H](CC(N)=O)C(=O)N[C@H]2C(=O)N[C@H]3C(=O)N[C@H](C(=O)N[C@H](C(=O)O)c4cc(O)cc(O)c4-c4cc3ccc4O)[C@H](O[C@H]3C[C@](C)(N)[C@@H](O)[C@H](C)O3)c3ccc(c(Cl)c3)Oc3cc2cc(c3O[C@@H]2O[C@H](CO)[C@@H](O)[C@H](O)[C@H]2O[C@H]2C[C@](C)(NCc3ccc(-c4ccc(Cl)cc4)cc3)[C@@H](O)[C@H](C)O2)Oc2ccc(cc2Cl)[C@H]1O	µg/mL	4.5
CO[C@@H]1[C@@H](OC(N)=O)[C@@H](O)[C@H](Oc2ccc3c(O)c(NC(=O)c4ccc(O)c(CC=C(C)C)c4)c(=O)oc3c2C)OC1(C)C	µg/mL	0.05
CO[C@H]1/C=C/O[C@@]2(C)Oc3c(C)c(O)c4c(O)c(c(/C=N/N5CCN(C)CC5)c(O)c4c3C2=O)NC(=O)/C(C)=C\C=C\[C@H](C)[C@H](O)[C@@H](C)[C@@H](O)[C@@H](C)[C@H](OC(C)=O)[C@@H]1C	µg/mL	0.035
CO[C@@]12[C@H](COC(N)=O)C3=C(C(=O)C(C)=C(N)C3=O)N1C[C@@H]1N[C@@H]12	µg/mL	0.069

Quote MIC with test system S. aureus Newman for `CC[C@H]1OC(=O)[C@H](C)[C@@H](O[C@H]2C[C@@](C)(OC)[C@@H](O)[C@H](C)O2)[C@H](C)[C@@H](O[C@@H]2O[C@H](C)C[C@H](N(C)C)[C@H]2O)[C@](C)(O)C[C@@H](C)C(=O)[C@H](C)[C@@H](O)[C@]1(C)O`
0.5

Fill in MIC for `CN[C@@H]1[C@H](O)[C@H](NC)[C@H]2O[C@@]3(O)C(=O)C[C@@H](C)O[C@H]3O[C@@H]2[C@H]1O` tested with S. aureus Newman.
16
